Where do these numbers come from? They come from patent US11679107B2.

Assignment: determine reported CTGlo-ATS Mean MinResponse % 72 h PANC0504.1 for the given molecules.
- Tested on: Panc 05.04 cells (SF3b K700E mutant)
- Procedure Text: Cell proliferation and viability, CellTiter-Glo, 72 hours
- Format: cell-based
- Condition: 72 h; PANC0504.1; -100% = cidal, 0% = static, 100% = uninhibited growth
Write the value in % as a bare number.

Ask | Data request, read-out CTGlo-ATS Mean MinResponse % 72 h PANC0504.1, for C/C(=C\c1cc(F)cc(N2CCOCC2)c1)[C@H]1OC(=O)C[C@H](O)CC[C@H](C)[C@@H](OC(=O)N2CC[C@H](N(C)C)C2)/C=C/[C@@H]1C [Compound 244]
Reply | −95.630

Ask | Data request, read-out CTGlo-ATS Mean MinResponse % 72 h PANC0504.1, for C/C(=C\c1cccc(N(C)C)c1)[C@H]1OC(=O)C[C@H](O)CC[C@H](C)[C@@H](OC(=O)N2CCN(C)CC2)/C=C/[C@@H]1C [Compound 265]
Reply | 25.1

Ask | Data request, read-out CTGlo-ATS Mean MinResponse % 72 h PANC0504.1, for C/C(=C\c1cccc(S(=O)(=O)N2CC[C@@H](O)C2)c1)[C@H]1OC(=O)C[C@H](O)CC[C@H](C)[C@@H](OC(=O)N2CCN(C)CC2)/C=C/[C@@H]1C [Compound 199]
Reply | −95.445

Ask | Data request, read-out CTGlo-ATS Mean MinResponse % 72 h PANC0504.1, for C/C(=C\c1cccc(S(=O)(=O)N2CCC2)c1)[C@H]1OC(=O)C[C@H](O)CC[C@H](C)[C@@H](OC(=O)N2CCN(C)CC2)/C=C/[C@@H]1C [Compound 198]
Reply | −96.773

Ask | Data request, read-out CTGlo-ATS Mean MinResponse % 72 h PANC0504.1, for [2H]C([2H])([2H])N1CCN(C(=O)O[C@H]2/C=C/C(C)C(/C(C)=C/c3cc(F)cc(N4CCOCC4)c3)OC(=O)CC(O)CC[C@@H]2C)CC1 (stereo in doubt) [Compound 220]
Reply | −90.506

====

- Tested on: NCI-H1568 cells (high MCL1)
- Procedure Text: Cell proliferation and viability, CellTiter-Glo, 72 hours
- Format: cell-based
- Condition: NCI-H1568, read-out: CTGlo-ATS GMean GI50 (nM) 72 h NCIH1568.1; 72 h; NCIH1568.1; geometric mean
Quantity Kind: log10 of GI50 (log10 of the value in nM)
Transform log10 | Measure GI50 | Unit nM

Ask | Data request, read-out log10 of GI50, for C/C(=C\c1cc(F)cc(N2CCN(C(=O)Cn3cccn3)CC2)c1)[C@H]1OC(=O)C[C@H](O)CC[C@H](C)[C@@H](OC(=O)N2CCN(CCO)CC2)/C=C/[C@@H]1C
Reply | 0.72

Ask | Data request, read-out log10 of GI50, for C/C(=C\c1cccc(S(=O)(=O)N2CCN(C)CC2)c1)[C@H]1OC(=O)C[C@H](O)CC[C@H](C)[C@@H](OC(=O)N2CCN(C)CC2)/C=C/[C@@H]1C
Reply | 1.78

Ask | Data request, read-out log10 of GI50, for C/C(=C\c1cc(F)cc(N2CCN(C(=O)Cn3cccn3)CC2)c1)[C@H]1OC(=O)C[C@H](O)CC[C@H](C)[C@@H](OC(=O)N2CCN(Cc3cccc(O)c3)CC2)/C=C/[C@@H]1C
Reply | 1.13

Ask | Data request, read-out log10 of GI50, for C/C(=C\c1cc(F)cc(NC(=O)CC2CC2)c1)[C@H]1OC(=O)C[C@H](O)CC[C@H](C)[C@@H](OC(=O)N2CCN(C)CC2)/C=C/[C@@H]1C
Reply | 1.19

Ask | Data request, read-out log10 of GI50, for C/C(=C\c1cccc(S(=O)(=O)NC(C)(C)C)c1)[C@H]1OC(=O)C[C@H](O)CC[C@H](C)[C@@H](OC(=O)N2CCN(C)CC2)/C=C/[C@@H]1C
Reply | 1.06

Ask | Data request, read-out log10 of GI50, for C/C(=C\c1cccc(COC(=O)N2CC[C@@H](F)C2)c1)[C@H]1OC(=O)C[C@H](O)CC[C@H](C)[C@@H](OC(=O)N2CCN(C)CC2)/C=C/[C@@H]1C (single isomer, unassigned) [Compound 256]
Reply | 1.78

====

- Tested On: SF3b complexes (Homo sapiens, UniProt O75533+Q7RTV0)
- Construct: endogenous in cells; host or cells: Nuclear extracts; A HeLa S3 extract preparation is described for the in vitro splicing assay
- Procedure Text: Scintillation proximity assay (SPA) with [3H]-labelled pladienolide probe
- Assay type: binding
- Condition: SF3B1 (WT); geometric mean; read-out: SPA-ATS GMean IC50 (nM) SF3B1 (WT)
Assignment: determine reported IC50 for the given compounds.
Write the value in nM as a bare number.

Ask | Data request, read-out IC50, for C/C(=C\c1cc(F)cc(N(C)C2COC2)c1)[C@H]1OC(=O)C[C@H](O)CC[C@H](C)[C@@H](OC(=O)N2CCN(C)CC2)/C=C/[C@@H]1C [Compound 169]
Reply | 1.43

Ask | Data request, read-out IC50, for COCCN1CCN(c2cc(F)cc(/C=C(\C)[C@H]3OC(=O)C[C@H](O)CC[C@H](C)[C@@H](OC(=O)N4CCN(C)CC4)/C=C/[C@@H]3C)c2)CC1=O [Compound 105]
Reply | 2.87

Ask | Data request, read-out IC50, for C/C(=C\c1cc(F)cc(N(C)C2CCN(S(=O)(=O)c3ccccc3)CC2)c1)[C@H]1OC(=O)C[C@H](O)CC[C@H](C)[C@@H](OC(=O)N2CCN(C)CC2)/C=C/[C@@H]1C [Compound 185]
Reply | 186

Ask | Data request, read-out IC50, for C/C(=C\c1cccc(S(=O)(=O)N2CCCC2C)c1)[C@H]1OC(=O)CC(O)CCC(C)[C@@H](OC(=O)N2CCN(C)CC2)/C=C/[C@@H]1C (stereo in doubt) [Compound 200]
Reply | 8.03

Ask | Data request, read-out IC50, for C/C(=C\c1cc(F)cc(N2CCNC2=O)c1)[C@H]1OC(=O)C[C@H](O)CC[C@H](C)[C@@H](OC(=O)N2CCN(C)CC2)/C=C/[C@@H]1C [Compound 64]
Reply | 3.08

====

- Tested On: SF3b complexes (Homo sapiens, UniProt O75533+Q7RTV0)
- Construct: endogenous in cells; host or cells: Nuclear extracts; A HeLa S3 extract preparation is described for the in vitro splicing assay
- Procedure Text: Scintillation proximity assay (SPA) with [3H]-labelled pladienolide probe
- Format: binding
- Condition: SF3B1 (WT); geometric mean; read-out: SPA-ATS GMean IC50 (nM) SF3B1 (WT)
Assignment: determine reported IC50 for the given compounds.
Write the value in nM as a bare number.

Ask | Data request, read-out IC50, for C/C(=C\c1cccc(N(C)C2COC2)c1)[C@H]1OC(=O)C[C@H](O)CC[C@H](C)[C@@H](OC(=O)N2CCN(C)CC2)/C=C/[C@@H]1C
Reply | 1.51

Ask | Data request, read-out IC50, for C/C(=C\c1cc(F)cc(N2CCOC[C@@H]2C)c1)[C@H]1OC(=O)C[C@H](O)CC[C@H](C)[C@@H](OC(=O)N2CCN(C)CC2)/C=C/[C@@H]1C
Reply | 4.57

Ask | Data request, read-out IC50, for C/C(=C\c1cc(Cl)cc(Cl)c1)[C@H]1OC(=O)C[C@H](O)CC[C@H](C)[C@@H](OC(=O)N2CCN(C)CC2)/C=C/[C@@H]1C
Reply | 11.3

Ask | Data request, read-out IC50, for C/C(=C\c1cncc(S(=O)(=O)N2CCCC2)c1)[C@H]1OC(=O)C[C@H](O)CC[C@H](C)[C@@H](OC(=O)N2CCN(C)CC2)/C=C/[C@@H]1C
Reply | 16.2

Ask | Data request, read-out IC50, for C/C(=C\c1cc(F)cc(N2CCN(C(=O)[C@@H]3CCOC3)CC2)c1)[C@H]1OC(=O)C[C@H](O)CC[C@H](C)[C@@H](OC(=O)N2CCN(C)CC2)/C=C/[C@@H]1C
Reply | 3.83

====

- Tested on: Panc 05.04 cells (SF3b K700E mutant)
- Procedure Text: Cell proliferation and viability, CellTiter-Glo, 72 hours
- Type: cell-based
- Condition: Panc 05.04, read-out: CTGlo-ATS GMean GI50 (nM) 72 h PANC0504.1; 72 h; PANC0504.1; geometric mean
Mark rule met for GI50 under 40 nM, rule not met if at or over.

Ask | Dear reviewer, please state whether C/C(=C\c1cccc(S(=O)(=O)N2CCCCC2)c1)[C@H]1OC(=O)C[C@H](O)CC[C@H](C)[C@@H](OC(=O)N2CCN(C)CC2)/C=C/[C@@H]1C has GI50 strictly beneath 40 nM.
Reply | rule met

Ask | Dear reviewer, please state whether C/C(=C\c1cccc(S(=O)(=O)N2CC(F)(F)C2)c1)[C@H]1OC(=O)C[C@H](O)CC[C@H](C)[C@@H](OC(=O)N2CCN(C)CC2)/C=C/[C@@H]1C has GI50 strictly beneath 40 nM.
Reply | rule not met

Ask | Dear reviewer, please state whether C/C(=C\c1cc(F)cc(NS(=O)(=O)N(C)C)c1)[C@H]1OC(=O)C[C@H](O)CC[C@H](C)[C@@H](OC(=O)N2CCN(C)CC2)/C=C/[C@@H]1C has GI50 strictly beneath 40 nM.
Reply | rule not met

Ask | Dear reviewer, please state whether C/C(=C\c1cc(F)cc(N2CCOCC2)c1)[C@H]1OC(=O)C[C@H](O)CC[C@H](C)[C@@H](OC(=O)N2CCC(N(C)C)C2)/C=C/[C@@H]1C (stereo in doubt) has GI50 strictly beneath 40 nM.
Reply | rule met

Ask | Dear reviewer, please state whether C/C(=C\c1cc(F)cc(N2CC[C@H](NS(C)(=O)=O)C2)c1)[C@H]1OC(=O)C[C@H](O)CC[C@H](C)[C@@H](OC(=O)N2CCN(C)CC2)/C=C/[C@@H]1C has GI50 strictly beneath 40 nM.
Reply | rule met

Ask | Dear reviewer, please state whether C/C(=C\c1cc(F)cc(N2CCOCC2)c1)[C@H]1OC(=O)C[C@H](O)CC[C@H](C)[C@@H](OC(=O)N2CCN(C)C(C)(C)C2)/C=C/[C@@H]1C has GI50 strictly beneath 40 nM.
Reply | rule met

Ask | Dear reviewer, please state whether C/C(=C\c1ccc(C)c(S(=O)(=O)N2CCCC2)c1)[C@H]1OC(=O)C[C@H](O)CC[C@H](C)[C@@H](OC(=O)N2CCN(C)CC2)/C=C/[C@@H]1C has GI50 strictly beneath 40 nM.
Reply | rule not met

Ask | Dear reviewer, please state whether C/C(=C\c1cc(F)cc(N2CCOCC2)c1)[C@H]1OC(=O)C[C@H](O)CC[C@H](C)[C@@H](OC(=O)NCCN(C)C)/C=C/[C@@H]1C has GI50 strictly beneath 40 nM.
Reply | rule not met

Ask | Dear reviewer, please state whether COCC(=O)Nc1cc(F)cc(/C=C(\C)[C@H]2OC(=O)CC(O)CCC(C)[C@@H](OC(=O)N3CCN(C)CC3)/C=C/[C@@H]2C)c1 (stereo in doubt) has GI50 strictly beneath 40 nM.
Reply | rule met

Ask | Dear reviewer, please state whether C/C(=C\c1cccc(S(=O)(=O)N2CCC(F)(F)CC2)c1)[C@H]1OC(=O)C[C@H](O)CC[C@H](C)[C@@H](OC(=O)N2CCN(C)CC2)/C=C/[C@@H]1C has GI50 strictly beneath 40 nM.
Reply | rule met
